- System: ATP;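 note: ATP exposure 15 min at 22 °C before imaging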
- methodSummary: switch fluorescence ratio, 500 uM ATP over buffer (Cy3 cluster intensity, sum of 5 cycles each) (fold (ratio)); higher = stronger signal-on switching upon ATP binding; sequences stand for … in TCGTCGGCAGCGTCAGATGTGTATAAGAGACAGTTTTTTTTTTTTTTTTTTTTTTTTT…TC
- condition: aptamer strand: ATP DNA aptamer (quencher-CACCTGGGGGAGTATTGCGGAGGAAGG + anchor), 100 nM annealed; ATP concentration: 500 uM
Exercise: for every item that follows, state its recorded switch fluorescence ratio.
Answers are plain numbers.

// below: answered sequences
polymerSequence: CTGGATTGGG
assayedSystem: ATP;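 note: ATP exposure 15 min at 22 °C before imaging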
switch fluorescence ratio: 0.98
//
polymerSequence: AAATGTCTTG
assayedSystem: ATP;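 note: ATP exposure 15 min at 22 °C before imaging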
switch fluorescence ratio: 0.955
//
polymerSequence: CGGGGGACAG
assayedSystem: ATP;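 note: ATP exposure 15 min at 22 °C before imaging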
switch fluorescence ratio: 1.03
//
polymerSequence: TAAACGGGCG
assayedSystem: ATP;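 note: ATP exposure 15 min at 22 °C before imaging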
switch fluorescence ratio: 0.983
//
polymerSequence: GGTCGCGTAG
assayedSystem: ATP;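 note: ATP exposure 15 min at 22 °C before imaging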
switch fluorescence ratio: 1.01

Count: 3. Required value per item: switch fluorescence ratio.
1. TACTTTGCTC
2. TCGTAATAGT
3. CATGGTCTCA

1.03
1.62
1.02

Count: 4. Required value per item: switch fluorescence ratio.
1. TTGGAAGGGG
2. GTTCAAGATA
3. ATCCGAGTCA
4. TTCTACCTGA

1: 1.13; 2: 1; 3: 1.07; 4: 1.06

Count: 7. Required value per item: switch fluorescence ratio.
1. AAAACCGGGA
2. CATTCGGGTG
3. GCGGCGGTGC
4. TCGAGGCGGG
5. TTATTTCCAC
6. AACTTTTGCT
7. TTTTAGGTAC

1: 1.32; 2: 1.11; 3: 1.02; 4: 1.18; 5: 0.986; 6: 1.03; 7: 1.02
